# subject of test: biotinylated MSLN (human MSLN in the MSLN/MUC16 competition ELISA) (human, UniProt Q13421 296-598, limits assumed, biotinylated)
# protocol: competition ELISA, scFv titrated with biotinylated MSLN; competitor coated MUC16
experimental readout: pIC50
pIC50 field: float, defined as -log10 of concentration (mol/L).

// pIC50 lookup, binder = reference anti-MSLN scFv PRO1795 (scFv, also called 54-22-H03-sc01) scFv: DIQMTQSPSSLSASVGDRVTITCQASESIGNYLAWYQQKPGKAPKLLIYSASTLASGVPSRFSGSGSGTDFTLTISSLQPEDFATYYCQSTDYGDSYIFGTGTKVTVLGGGGGSGGGGSGGGGSGGGGSEVQLVESGGGLVQPGGSLRLSCAASGISVSNDYYMCWVRQAPGKGLEWIGCISTYIGNTHYASWAKGRFTISRDNSKNTVYLQMNSLRAEDTAVYYCAKNAGYPGYRYAIDLWGQGTLVTVSS , result: 10.70
